# Test system: RSV A2 strain
# experimentalDetails: In vitro CPE (CytoPathic Effect) inhibition effect evaluation test, RSV type A
# Format: cell-based
# measurementParameters: human respiratory syncytial virus; inhibitory effect against RSV type A (RSV A2 strain), HEp-2 cells, CPE inhibition; read-out: EC50
experimentalEndpoint: EC50

Examples with their reported EC50 follow.
Query :: // lookup EC50 | system=RSV A2 strain | key= O=C(NC1(C(=O)O)C2CC3CC(C2)CC1C3)c1cnc(N2CC3(CCOC3)c3cc(OCC(F)(F)F)ccc32)nc1C(F)(F)F (racemic)
Result :: < 10 nM

Query :: # repeat for COCCN1CCC(Oc2ccc3c(-c4ncc(C(=O)NC5(C(=O)O)C6CC7CC(C6)CC5C7)c(C(F)(F)F)n4)cn(C4CCC(F)(F)CC4)c3c2)CC1 (stereo not drawn)
Result :: < 10 nM

***
Query :: Form field: EC50 recorded for CC(=O)N1CCC(Oc2ccc3c(-c4ncc(C(=O)NC5(C(=O)O)C6CC7CC(C6)CC5C7)c(C(F)(F)F)n4)cn(C4CCC(F)(F)CC4)c3c2)CC1 (stereo not drawn) with RSV A2 strain (enter value)
Result :: < 10 nM

Query :: Further, for O=C(NC1(C(=O)O)C2CC3CC(C2)CC1C3)c1cnc(N2CC3(CCCC3)c3cc(O[C@@H]4CCN(CC(F)(F)F)C4)ccc32)nc1C(F)(F)F (stereo partly drawn) ?
Result :: < 10 nM

Query :: What about this molecule? COC(=O)N1CCC(Oc2ccc3c(-c4ncc(C(=O)NC5(C(=O)O)C6CC7CC(C6)CC5C7)c(C(F)(F)F)n4)cn(C4CCC(F)(F)CC4)c3c2)CC1 (stereo not drawn)
Result :: < 10 nM

Query :: Follow-up item: O=C(NC1(C(=O)O)C2CC3CC(C2)CC1C3)c1cnc(N2CC3(CCCCC3)c3cc(O[C@H]4CC[C@@H](N5CC(F)(F)C5)CC4)ccc32)nc1C(F)(F)F (stereo partly drawn)
Result :: < 10 nM

Query :: Cool, now COc1ccc2c(n1)C1(CCOCC1)CN2c1ncc(C(=O)NC2(C(=O)O)CCCCC2)c(C(F)(F)F)n1
Result :: 100 to 5000 nM

Query :: Then this molecule: CC(N1CCC(Oc2ccc3c(-c4ncc(C(=O)NC5(C(=O)O)C6CC7CC(C6)CC5C7)c(C(F)(F)F)n4)cn(C4CCC(F)(F)CC4)c3c2)CC1)C(F)(F)F (racemic)
Result :: < 10 nM

----------
# Tested on: RSV A2 strain
# experimentalDetails: In vitro CPE (CytoPathic Effect) inhibition effect evaluation test, RSV type A
# Type: cell-based
# measurementParameters: human respiratory syncytial virus; inhibitory effect against RSV type A (RSV A2 strain), HEp-2 cells, CPE inhibition; read-out: EC50
experimentalEndpoint: EC50

Below: 3 compounds and their reported EC50.
Query :: Reported EC50, compound Cc1c(OC2CCN(c3ncccn3)CC2)ccc2c(-c3ncc(C(=O)NC4(C(=O)O)C5CC6CC(C5)CC4C6)c(C(F)(F)F)n3)cn(C3CCC(F)(F)CC3)c12 (stereo not drawn) [Compound I-282] : ____
Result :: < 10 nM

Query :: Another compound: O=C(NC1(C(=O)O)C2CC3CC(C2)CC1C3)c1cnc(N2CC3(CCOC3)c3cc(OC4CCN(CC(F)(F)F)CC4)ccc32)nc1C(F)(F)F (racemic) [Compound I-467]
Result :: < 10 nM

Query :: Query O=C(NC1(C(=O)O)CCCCC1)c1cnc(N2CC3(CC3)c3cc(OCCC4CCOCC4)ccc32)nc1C(F)(F)F [Compound I-44] next
Result :: 10 to 100 nM

---
Query :: Tell me the measured EC50 of O=C(NC1(C(=O)O)C2CC3CC(C2)CC1C3)c1cnc(N2CC3(CCOCC3)c3cc(-c4ccccc4)ccc32)nc1C(F)(F)F (stereo not drawn) [Compound I-279] , please.
Result :: < 10 nM

Query :: And for O=C(NC1(C(=O)O)C2CC3CC(C2)CC1C3)c1ccc(-c2cn(C3CCOCC3)c3cc(OC4CCN(c5ncccn5)CC4)c(F)cc23)nc1C(F)(F)F (stereo not drawn) [Compound I-222] ?
Result :: < 10 nM

Query :: Queued: CC(=O)N1CCC(Oc2ccc3c(c2)CCN3c2ncc(C(=O)NC3(C(=O)O)CCCCC3)c(C(F)(F)F)n2)CC1 [Compound I-64]
Result :: 100 to 5000 nM
